- Test details: Distribution coefficient, logD of compound at pH 7.4
- Assay type: physicochemical
- Condition info: octanol/water
Measured attribute: logD

Quick one: logD of CCN1CC2(CCN(CCc3cc(F)ccc3F)CC2)O[C@H](C)C1=O ? 2

====

- Target: Sigma non-opioid intracellular receptor 1 (Homo sapiens, UniProt Q99720)
- Sequence (Q99720 whole entry): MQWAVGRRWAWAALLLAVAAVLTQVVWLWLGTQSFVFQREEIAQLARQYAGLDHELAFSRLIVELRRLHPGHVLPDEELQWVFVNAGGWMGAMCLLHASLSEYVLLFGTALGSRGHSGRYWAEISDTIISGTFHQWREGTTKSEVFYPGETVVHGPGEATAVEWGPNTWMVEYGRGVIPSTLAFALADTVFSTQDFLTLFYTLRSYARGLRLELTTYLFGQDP
- Test details: Displacement of 3H](+)-pentazocine from human sigma1 receptor expressed in HEK293 cell membranes incubated for 120 mins by liquid scintillation counting method
# key: entry, value: pKi
Remember, pKi is on a log scale: it is -log10 of the molar concentration.

Recorded results for 3 molecules are shown here.
molecule=CCN1CC2(CCN(CCc3ccc(F)cc3F)CC2)O[C@H](C)C1=O value_observed=7.03
molecule=C[C@@H]1OC2(CCN(CCc3ccccc3)CC2)CN(C)C1=O value_observed=6.78
molecule="CC1OC2(CCN(CCc3ccccc3)CC2)CN(Cc2ccccc2)C1=O (stereo unspecified)" value_observed=8.00

Note: attention shifts to another entry.
Quick one: pKi of CN1CC2(CCN(CCc3ccccc3)CC2)OC2(CC2)C1=O ? 6.79

====

- Target: UniProt P35372
- Sequence (P35372 whole entry): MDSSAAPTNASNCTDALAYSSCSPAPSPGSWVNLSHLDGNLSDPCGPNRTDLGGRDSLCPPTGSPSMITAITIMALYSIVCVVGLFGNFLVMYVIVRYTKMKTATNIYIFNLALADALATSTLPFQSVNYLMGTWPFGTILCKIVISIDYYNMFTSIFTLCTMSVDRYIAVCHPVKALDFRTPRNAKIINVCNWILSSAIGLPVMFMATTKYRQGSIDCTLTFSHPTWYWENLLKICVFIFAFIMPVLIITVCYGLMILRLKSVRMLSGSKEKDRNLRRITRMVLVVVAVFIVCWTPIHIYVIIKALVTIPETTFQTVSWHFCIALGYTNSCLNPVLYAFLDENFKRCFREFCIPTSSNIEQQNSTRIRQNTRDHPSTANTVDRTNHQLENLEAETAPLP
- Test details: Agonist activity at human MOR expressed in CHOK1 cells assessed as […] of cAMP accumulation incubated for 45 mins by HTRF assay relative to DAMGO
- Assay type: functional, cell-based
- Condition info: CHO-K1, filed as agonist
Param threshold (90%) applies to Emax; output met when value >= threshold, not met when value < threshold.

compound="CC1OC2(CCN(CCc3ccccc3)CC2)CN(CCc2ccccc2)C1=O (configuration not stated)" class_name=met
compound="CC1OC2(CCN(CCc3ccccc3)CC2)CN(Cc2ccccc2)C1=O (configuration not stated)" class_name=met
compound=CCN1CC2(CCN(CCc3ccc(F)cc3)CC2)O[C@H](C)C1=O class_name="not met"
compound=C[C@H]1OC2(CCN(CCc3ccccc3)CC2)CN(C)C1=O class_name="not met"

Next compound, please.
Tell me whether Emax is at least 90% here: CCN1CC2(CCN(CCc3ccccc3F)CC2)O[C@H](C)C1=O not met

====

- Target: CYP2D6 (Homo sapiens)
- Sequence (P10635 whole entry): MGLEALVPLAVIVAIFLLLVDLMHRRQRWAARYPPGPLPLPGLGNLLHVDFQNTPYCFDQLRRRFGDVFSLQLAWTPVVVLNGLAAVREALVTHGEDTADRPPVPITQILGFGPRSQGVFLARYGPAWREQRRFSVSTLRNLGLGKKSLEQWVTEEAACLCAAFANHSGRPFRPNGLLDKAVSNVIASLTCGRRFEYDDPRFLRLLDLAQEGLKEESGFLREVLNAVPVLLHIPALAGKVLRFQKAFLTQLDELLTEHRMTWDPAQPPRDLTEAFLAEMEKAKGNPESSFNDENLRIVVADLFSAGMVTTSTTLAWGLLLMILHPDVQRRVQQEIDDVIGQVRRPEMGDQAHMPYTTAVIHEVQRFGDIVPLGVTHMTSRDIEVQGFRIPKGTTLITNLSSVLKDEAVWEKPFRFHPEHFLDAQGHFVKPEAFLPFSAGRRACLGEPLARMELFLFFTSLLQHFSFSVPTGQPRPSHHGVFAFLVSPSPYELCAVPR
- Test details: Inhibition of human CYP2D6 at 1 uM relative to control
- Type: ADME
Measured attribute: inhibition at 1 µM

Quick one: inhibition at 1 µM of CCN1CC2(CCN(CCc3cc(F)ccc3F)CC2)O[C@H](C)C1=O ? < 50%

====

# key: entry, value: Ki
- Target: Sigma non-opioid intracellular receptor 1 (Homo sapiens)
- Test details: Displacement of 3H](+)-pentazocine from human sigma1 receptor expressed in HEK293 cell membranes incubated for 120 mins by liquid scintillation counting method
Give the value in nM but do not write nM after it.

Recorded results for 3 compounds are shown here.
compound=CCN1CC2(CCN(CCc3ccc(F)cc3)CC2)O[C@H](C)C1=O measured_attribute=Ki units_of_measure=nM value_observed=76
compound=CCN1CC2(CCN(CCc3cccc(F)c3F)CC2)O[C@H](C)C1=O measured_attribute=Ki units_of_measure=nM value_observed=556
compound="CC1OC2(CCN(CCc3ccccc3)CC2)CN(C)C1=O (configuration not stated)" measured_attribute=Ki units_of_measure=nM value_observed=142

Quick one: Ki of CCN1CC2(CCN(CCc3ccccc3F)CC2)O[C@H](C)C1=O ? 68

Another compound: CCN1CC2(CCN(CCc3cccc(F)c3)CC2)O[C@H](C)C1=O 64

Another compound: CC[C@H]1OC2(CCN(CCc3ccccc3)CC2)CN(C)C1=O 139

Another compound: CN1CC2(CCN(CCc3ccccc3)CC2)OC(c2ccccc2)C1=O (configuration not stated) 242

Another compound: CCN1CC2(CCN(CCc3ccccc3)CC2)O[C@H](C)C1=O 66

Another compound: CC1OC2(CCN(CCc3ccccc3)CC2)CN(C(C)C)C1=O (configuration not stated) 30

Another compound: CCN1CC2(CCN(CCc3ccccc3)CC2)OC(C)C1=O (configuration not stated) 43

Another compound: CC(C)C1OC2(CCN(CCc3ccccc3)CC2)CN(C)C1=O (configuration not stated) 122

Another compound: CCN1CC2(CCN(CCc3c(F)cccc3F)CC2)O[C@H](C)C1=O 609

Another compound: C[C@H]1OC2(CCN(CCc3ccccc3)CC2)CN(C)C1=O 277

Another compound: CCN1CC2(CCN(CCc3ccccn3)CC2)OC2(CC2)C1=O 783

Another compound: CN1CC2(CCN(CCc3ccccc3)CC2)OCC1=O 282

Another compound: CC1OC2(CCN(CCc3ccccc3)CC2)CN(CCc2ccccc2F)C1=O (configuration not stated) 892

Another compound: CN1CC2(CCN(CCc3ccccc3)CC2)OC(C)(C)C1=O 50
